System: Adenosine receptor A3 (Homo sapiens) (UniProt P0DMS8)
Sequence (P0DMS8 whole entry): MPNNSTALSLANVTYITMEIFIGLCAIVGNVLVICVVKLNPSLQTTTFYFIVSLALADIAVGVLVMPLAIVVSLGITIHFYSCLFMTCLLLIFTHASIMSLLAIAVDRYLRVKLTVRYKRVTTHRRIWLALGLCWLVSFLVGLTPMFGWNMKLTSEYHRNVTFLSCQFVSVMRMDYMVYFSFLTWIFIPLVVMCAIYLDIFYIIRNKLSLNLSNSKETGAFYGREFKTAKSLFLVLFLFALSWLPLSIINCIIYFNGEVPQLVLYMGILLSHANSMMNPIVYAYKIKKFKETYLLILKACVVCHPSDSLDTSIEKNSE
Procedure Text: Displacement of […] from human A3AR expressed in HEK cells at 10 uM relative to control
Assay type: cell-based
Experimental Endpoint: Activity (%)
Answer in %, number only, no unit symbol.

stdin: Return value of Activity for input "O[C@H]1[C@H](n2cnc3c(NC(C4CCCC4)C4CCCC4)nc(Cl)nc32)[C@H]2C[C@@]2(CSc2ccccc2F)[C@H]1O" , no commentary.
stdout: 1

stdin: Return value of Activity for input COCCN(CCOC)C(=O)[C@]12C[C@H]1[C@H](n1cnc3c(NC(C4CC4)C4CC4)nc(Cl)nc31)[C@@H](O)[C@H]2O (single isomer, unassigned) , no commentary.
stdout: 30

stdin: Return value of Activity for input "OC[C@@]12C[C@@H]1[C@@H](n1cnc3c(N[C@H](C4CCC4)C4CC4)nc(I)nc31)[C@H](O)[C@@H]2O" , no commentary.
stdout: 34

stdin: Return value of Activity for input "OC[C@H]1O[C@@H](n2cnc3c(N[C@H](C4CCC4)C4CC4)nc(I)nc32)[C@H](O)[C@@H]1O" , no commentary.
stdout: 34

====

System: Histamine H1 receptor (Homo sapiens)
Sequence (P35367 whole entry): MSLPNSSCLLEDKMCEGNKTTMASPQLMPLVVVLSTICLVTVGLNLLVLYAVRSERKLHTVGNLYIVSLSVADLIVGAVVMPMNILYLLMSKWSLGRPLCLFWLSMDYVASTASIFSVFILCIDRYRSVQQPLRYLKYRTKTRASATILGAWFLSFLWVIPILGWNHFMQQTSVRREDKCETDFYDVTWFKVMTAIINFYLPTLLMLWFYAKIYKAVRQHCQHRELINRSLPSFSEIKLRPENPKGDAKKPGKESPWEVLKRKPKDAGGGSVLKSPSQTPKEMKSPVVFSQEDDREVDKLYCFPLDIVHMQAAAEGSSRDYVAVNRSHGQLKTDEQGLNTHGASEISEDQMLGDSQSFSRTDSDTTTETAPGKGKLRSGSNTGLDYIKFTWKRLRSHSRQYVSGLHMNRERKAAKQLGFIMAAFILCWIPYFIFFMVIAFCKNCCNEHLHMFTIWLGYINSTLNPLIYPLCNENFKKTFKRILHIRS
Procedure Text: Binding affinity to histamine H1 receptor (unknown origin) assessed as inhibition constant
Experimental Endpoint: Ki
Output should be the measured figure followed by the unit it is expressed in.

stdin: Return value of Ki for input "OC[C@@]12C[C@@H]1[C@@H](n1cnc3c(N[C@@H](C4CCC4)C4CC4)nc(I)nc31)[C@H](O)[C@@H]2O" , no commentary.
stdout: 2100 nM

====

For each record, write down the corresponding pKi.
System: Alpha-2B adrenergic receptor (Homo sapiens)
Sequence (P18089 whole entry): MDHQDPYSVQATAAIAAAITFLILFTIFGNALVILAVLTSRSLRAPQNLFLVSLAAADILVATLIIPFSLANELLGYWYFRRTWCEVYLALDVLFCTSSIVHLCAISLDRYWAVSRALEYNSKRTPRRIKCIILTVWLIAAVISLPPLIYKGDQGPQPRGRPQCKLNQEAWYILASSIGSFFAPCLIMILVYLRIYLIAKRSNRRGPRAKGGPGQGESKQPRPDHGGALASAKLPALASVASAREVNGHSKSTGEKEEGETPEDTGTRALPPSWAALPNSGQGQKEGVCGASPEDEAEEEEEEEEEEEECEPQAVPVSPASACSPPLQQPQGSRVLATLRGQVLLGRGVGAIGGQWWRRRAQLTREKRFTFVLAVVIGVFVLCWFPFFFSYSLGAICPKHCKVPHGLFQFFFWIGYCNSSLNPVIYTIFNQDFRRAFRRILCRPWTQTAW
Convention used: pKi is expressed as -log10 of the molar concentration.

stdin: Print Alpha-2B adrenergic receptor (Homo sapiens) pKi for "CSC[C@@]12C[C@@H]1[C@@H](n1cnc3c(NC(C4CCCC4)C4CCCC4)nc(SC)nc31)[C@H](O)[C@@H]2O" .
stdout: 5.92

stdin: Print Alpha-2B adrenergic receptor (Homo sapiens) pKi for "CSC[C@@]12C[C@@H]1[C@@H](n1cnc3c(NC(C4CCCC4)C4CCCC4)nc(Cl)nc31)[C@H](O)[C@@H]2O" .
stdout: 5.77

stdin: Print Alpha-2B adrenergic receptor (Homo sapiens) pKi for "O[C@H]1[C@H](n2cnc3c(NC(C4CCCCC4)C4CCCCC4)nc(Cl)nc32)[C@H]2C[C@@]2(CF)[C@H]1O" .
stdout: 5.44

====

Experimental Endpoint: pKi
Convention used: pKi is expressed as -log10 of the molar concentration.

stdin: Print 5-hydroxytryptamine receptor 1D (Homo sapiens, UniProt P28221) pKi for "O[C@H]1[C@H](n2cnc3c(NC(C4CCCCC4)C4CCCCC4)nc(Cl)nc32)[C@H]2C[C@@]2(CF)[C@H]1O" .
stdout: 5.26

stdin: Print 5-hydroxytryptamine receptor 1D (Homo sapiens, UniProt P28221) pKi for "CCSC[C@@]12C[C@@H]1[C@@H](n1cnc3c(NC(C4CCCC4)C4CCCC4)nc(Cl)nc31)[C@H](O)[C@@H]2O" .
stdout: 5.28

stdin: Print 5-hydroxytryptamine receptor 1D (Homo sapiens, UniProt P28221) pKi for "O[C@H]1[C@H](n2cnc3c(NC(C4CCCC4)C4CCCC4)nc(Cl)nc32)[C@H]2C[C@@]2(CCl)[C@H]1O" .
stdout: 5.19

====

System: 5-hydroxytryptamine receptor 2C (Homo sapiens)
Procedure Text: Displacement of [3H]-Mesulergine from human 5-HT2C expressed in Flp-In-T-REx-293 cells assessed as inhibition constant incubated for 1 hr
Assay type: cell-based
Run Conditions: read-out: Ki
For each record, write down the corresponding pKi.
Convention used: pKi is expressed as -log10 of the molar concentration.

stdin: Print 5-hydroxytryptamine receptor 2C (Homo sapiens) pKi for "CCOC(=O)[C@@]12C[C@@H]1[C@@H](n1cnc3c(NC(C4CCCC4)C4CCCC4)nc(Cl)nc31)[C@H](O)[C@@H]2O" .
stdout: 6.86

stdin: Print 5-hydroxytryptamine receptor 2C (Homo sapiens) pKi for "COc1ccc(SC[C@@]23C[C@@H]2[C@@H](n2cnc4c(NC(C5CCCC5)C5CCCC5)nc(Cl)nc42)[C@H](O)[C@@H]3O)cc1OC" .
stdout: 6.43

stdin: Print 5-hydroxytryptamine receptor 2C (Homo sapiens) pKi for "OC[C@@]12C[C@@H]1[C@@H](n1cnc3c(NC(C4CC4)C4CC4)nc(I)nc31)[C@H](O)[C@@H]2O" .
stdout: 6.60

stdin: Print 5-hydroxytryptamine receptor 2C (Homo sapiens) pKi for "O[C@H]1[C@H](n2cnc3c(NC(C4CCCCC4)C4CCCCC4)nc(Cl)nc32)[C@H]2C[C@@]2(CF)[C@H]1O" .
stdout: 6.79

stdin: Print 5-hydroxytryptamine receptor 2C (Homo sapiens) pKi for "CSC[C@@]12C[C@@H]1[C@@H](n1cnc3c(NC(C4CC4)C4CC4)nc(Cl)nc31)[C@H](O)[C@@H]2O" .
stdout: 6.11

stdin: Print 5-hydroxytryptamine receptor 2C (Homo sapiens) pKi for "CC(C)[C@@H](Nc1nc(I)nc2c1ncn2[C@H]1[C@H](O)[C@H](O)[C@]2(CO)C[C@H]12)C1CC1" .
stdout: 6.04

stdin: Print 5-hydroxytryptamine receptor 2C (Homo sapiens) pKi for "OC[C@@]12C[C@@H]1[C@@H](n1cnc3c(N[C@H](C4CCC4)C4CC4)nc(I)nc31)[C@H](O)[C@@H]2O" .
stdout: 6.17

====

Experimental Endpoint: Ki (µM)
Answer in µM, number only, no unit symbol.

stdin: Print UniProt P28223 Ki for "CSC[C@@]12C[C@@H]1[C@@H](n1cnc3c(NC(C4CCCC4)C4CCCC4)nc(SC)nc31)[C@H](O)[C@@H]2O" .
Sequence (P28223 whole entry): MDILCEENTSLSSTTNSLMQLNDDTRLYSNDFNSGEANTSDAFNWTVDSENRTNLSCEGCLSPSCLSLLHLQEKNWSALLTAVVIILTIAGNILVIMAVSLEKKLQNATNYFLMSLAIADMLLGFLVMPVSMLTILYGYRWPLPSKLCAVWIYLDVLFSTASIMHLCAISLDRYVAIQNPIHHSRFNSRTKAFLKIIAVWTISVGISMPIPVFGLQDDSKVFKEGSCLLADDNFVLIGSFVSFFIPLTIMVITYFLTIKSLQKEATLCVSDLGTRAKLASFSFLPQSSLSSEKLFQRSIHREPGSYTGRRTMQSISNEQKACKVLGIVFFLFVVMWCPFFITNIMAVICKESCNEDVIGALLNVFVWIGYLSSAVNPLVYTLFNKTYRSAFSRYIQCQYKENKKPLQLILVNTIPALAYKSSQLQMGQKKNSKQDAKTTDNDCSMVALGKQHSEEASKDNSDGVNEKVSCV
stdout: 9.3

stdin: Print UniProt P28223 Ki for "O[C@H]1[C@H](n2cnc3c(NC(C4CCCC4)C4CCCC4)nc(Cl)nc32)[C@H]2C[C@@]2(CCl)[C@H]1O" .
stdout: 6.47

====

System: D(4) dopamine receptor (Homo sapiens, UniProt P21917)
Sequence (P21917 whole entry): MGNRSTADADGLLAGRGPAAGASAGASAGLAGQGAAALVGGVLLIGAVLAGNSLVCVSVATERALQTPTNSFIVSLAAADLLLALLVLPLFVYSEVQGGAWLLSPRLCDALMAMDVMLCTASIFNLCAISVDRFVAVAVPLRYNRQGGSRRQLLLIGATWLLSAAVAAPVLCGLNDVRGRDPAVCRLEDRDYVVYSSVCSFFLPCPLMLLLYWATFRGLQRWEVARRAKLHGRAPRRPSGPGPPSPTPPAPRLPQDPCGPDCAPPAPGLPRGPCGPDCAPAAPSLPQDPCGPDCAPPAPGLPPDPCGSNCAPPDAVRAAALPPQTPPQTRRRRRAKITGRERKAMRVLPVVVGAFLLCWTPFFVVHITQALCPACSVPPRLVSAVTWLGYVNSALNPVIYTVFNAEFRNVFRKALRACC
Experimental Endpoint: Ki (µM)
Answer in µM, number only, no unit symbol.

stdin: Return value of Ki for input "CCSC[C@@]12C[C@@H]1[C@@H](n1cnc3c(NC(C4CCCC4)C4CCCC4)nc(Cl)nc31)[C@H](O)[C@@H]2O" , no commentary.
stdout: 3.6

====

System: 5-hydroxytryptamine receptor 2B (Homo sapiens, UniProt P41595)
Sequence (P41595 whole entry): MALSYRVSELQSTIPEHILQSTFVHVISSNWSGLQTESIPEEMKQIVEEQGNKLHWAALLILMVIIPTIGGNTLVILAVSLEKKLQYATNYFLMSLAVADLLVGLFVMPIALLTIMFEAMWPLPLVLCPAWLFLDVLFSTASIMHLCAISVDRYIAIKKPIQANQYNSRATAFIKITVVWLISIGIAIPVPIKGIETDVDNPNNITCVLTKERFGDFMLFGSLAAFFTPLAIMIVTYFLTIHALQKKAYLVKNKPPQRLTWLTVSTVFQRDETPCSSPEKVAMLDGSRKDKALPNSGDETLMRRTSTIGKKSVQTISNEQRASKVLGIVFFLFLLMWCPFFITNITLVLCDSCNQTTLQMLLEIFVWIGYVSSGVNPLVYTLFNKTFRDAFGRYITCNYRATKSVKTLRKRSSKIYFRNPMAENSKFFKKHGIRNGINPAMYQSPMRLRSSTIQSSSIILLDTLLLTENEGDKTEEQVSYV
Procedure Text: Displacement of [3H]-LSD from human 5-HT2B receptor expressed in HEK cells at 10 uM incubated for 1 hr relative to control
Format: cell-based
Experimental Endpoint: Activity

stdin: Return value of Activity for input "Nc1nc(I)nc2c1ncn2[C@H]1[C@H](O)[C@H](O)[C@]2(CO)C[C@H]12" , no commentary.
stdout: -3%

stdin: Return value of Activity for input "Clc1nc(NCC2CC2)c2nc[nH]c2n1" , no commentary.
stdout: 29%

stdin: Return value of Activity for input "CSC[C@@]12C[C@@H]1[C@@H](n1cnc3c(N)nc(I)nc31)[C@H](O)[C@@H]2O" , no commentary.
stdout: 12%

stdin: Return value of Activity for input COCCN(CCOC)C(=O)[C@]12C[C@H]1[C@H](n1cnc3c(N)nc(Cl)nc31)[C@@H](O)[C@H]2O (single isomer, unassigned) , no commentary.
stdout: 36%

stdin: Return value of Activity for input "Nc1nc(I)nc2c1ncn2[C@H]1[C@H](O)[C@H](O)[C@]2(CCl)C[C@H]12" , no commentary.
stdout: 11%

====

System: 5-hydroxytryptamine receptor 2C (Homo sapiens, UniProt P28335)
Sequence (P28335 whole entry): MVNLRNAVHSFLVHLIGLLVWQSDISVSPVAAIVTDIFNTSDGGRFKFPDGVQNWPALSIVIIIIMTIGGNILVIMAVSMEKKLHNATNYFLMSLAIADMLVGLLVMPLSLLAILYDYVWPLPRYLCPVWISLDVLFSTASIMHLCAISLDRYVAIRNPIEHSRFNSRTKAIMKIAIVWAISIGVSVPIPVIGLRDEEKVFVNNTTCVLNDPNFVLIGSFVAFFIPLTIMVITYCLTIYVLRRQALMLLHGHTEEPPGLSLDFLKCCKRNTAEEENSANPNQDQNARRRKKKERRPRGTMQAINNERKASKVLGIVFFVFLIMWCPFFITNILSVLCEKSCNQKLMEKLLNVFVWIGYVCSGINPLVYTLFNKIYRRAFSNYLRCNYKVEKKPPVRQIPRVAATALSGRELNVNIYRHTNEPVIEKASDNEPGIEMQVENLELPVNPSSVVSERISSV
Procedure Text: Displacement of [3H]-Mesulergine from human 5-HT2C expressed in Flp-In-T-REx-293 cells assessed as inhibition constant incubated for 1 hr
Type: cell-based
Run Conditions: read-out: Ki
For each record, write down the corresponding Ki.
Answer in nM, number only, no unit symbol.

stdin: Return value of Ki for input "CCOC(=O)[C@@]12C[C@@H]1[C@@H](n1cnc3c(N[C@H](C4CCC4)C4CC4)nc(I)nc31)[C@H](O)[C@@H]2O" , no commentary.
stdout: 331

stdin: Return value of Ki for input "O[C@H]1[C@H](n2cnc3c(NC(C4CCCCC4)C4CCCCC4)nc(Cl)nc32)[C@H]2C[C@@]2(CCl)[C@H]1O" , no commentary.
stdout: 73.5

stdin: Return value of Ki for input "CSC[C@@]12C[C@@H]1[C@@H](n1cnc3c(NC(C4CCCC4)C4CCCC4)nc(Cl)nc31)[C@H](O)[C@@H]2O" , no commentary.
stdout: 481

stdin: Return value of Ki for input "OC[C@@]12C[C@@H]1[C@@H](n1cnc3c(N[C@@H](C4CCC4)C4CC4)nc(I)nc31)[C@H](O)[C@@H]2O" , no commentary.
stdout: 552

stdin: Return value of Ki for input "O[C@H]1[C@H](n2cnc3c(NC(C4CCCC4)C4CCCC4)nc(Cl)nc32)[C@H]2C[C@@]2(CF)[C@H]1O" , no commentary.
stdout: 580

stdin: Return value of Ki for input "CSC[C@@]12C[C@@H]1[C@@H](n1cnc3c(NC(C4CC4)C4CC4)nc(I)nc31)[C@H](O)[C@@H]2O" , no commentary.
stdout: 493
